# Tested on: 786-0 renal
# PROTOCOL_NOTES: NCI tumour cell line growth inhibition, 48 h
RESULT_TYPE: TGI (µM)
Field format: number, assumed µM, no unit text.

Please review the following examples before continuing.
COMPOUND | OBSERVED_RESULT
Cn1ccnc1C(=O)/C=C/c1ccc(CC(=O)Nc2ccccc2)cc1 | 7.86
COc1cc([C@@H]2c3cc4c(cc3[C@@H](NC(=O)c3ccccc3)C3COC(=O)[C@@H]32)OCO4)cc(OC)c1O (stereo not given in full) | 21.9

Prompt: Which TGI is listed for S=c1[nH]c(=S)c2cc(Sc3ccc4[nH]c(=S)[nH]c(=S)c4c3)ccc2[nH]1 ?
Completion: 40

====

Items are presented alongside their recorded TGI.
# System: OVCAR-5 ovarian
# PROTOCOL_NOTES: NCI tumour cell line growth inhibition, 48 h

Here are 3 compounds together with their reported answers.
COMPOUND | RESULT_TYPE | OBSERVED_RESULT
CC1C(=O)C(C)C(c2ccccc2)N(N=O)C1c1ccccc1 (stereo not given) | TGI | > 881 µM
COc1cccc(C2c3cc4c(cc3OC(O)(CO)C2C(=O)O)OCO4)c1 (stereo not given) (tested in a mixture with another compound) | TGI | > 100 µM
Clc1nc(Cl)c2c(ncn2C/C=C\Cn2cnc3c(Cl)nc(Cl)nc32)n1 | TGI | 3.74 µM

Prompt: Any idea what its TGI is? The compound is CCOC(=O)C(NC(=O)Nc1ccc(Cl)c(Cl)c1)C(F)(F)F (stereo not given)
Completion: > 100 µM

Prompt: Look at this compound and give its reported TGI. COc1cc2c(c(OC)c1OC)-c1ccc(SC)cc1[C@H](OC(=O)c1ccccc1)CC2
Completion: > 100 µM

====

Listed here: items and their measured GI50.
# Test system: HCC-2998 colon
# PROTOCOL_NOTES: NCI tumour cell line growth inhibition, 48 h

COMPOUND | EXPERIMENTAL_SYSTEM | GI50
CCCCN(Cc1ccc(F)cc1)c1ccc(CO)c(Cl)c1 | HCC-2998 colon | 12.4 µM
Fc1ccc2[nH]c3c(NCCCN4CCOCC4)ncnc3c2c1 | HCC-2998 colon | 61.4 µM
CC(=O)Nc1ccc2c(c1)oc(=O)c1cc(NC(C)=O)ccc12 | HCC-2998 colon | 52.4 µM
c1cnc2[nH]cc(-c3csc(-c4cn(CCCCN5CCOCC5)c5ccccc45)n3)c2c1 | HCC-2998 colon | 1.74 µM
CN(C)c1ccc2cc(-c3ccccc3F)c(N)nc2c1 | HCC-2998 colon | 3.18 µM

Prompt: GI50 lookup needed for COc1cc(Nc2nc(N[C@H]3CCCC[C@@H]3N)nc3cc[nH]c(=O)c23)cc(OC)c1 , thanks.
Completion: 1.7 µM

Prompt: Query: GI50; subject: CC(CNC(Cc1ccccc1)c1ccccc1)NC(Cc1ccccc1)c1ccccc1 (stereo not given)
Completion: 2.03 µM

Prompt: Please give the measured GI50 for this compound: C=C1CC[C@@H]2[C@](C)(COC(C)=O)[C@H](OC(C)=O)CC[C@@]2(C)[C@@H]1CC(Nc1ccc(S(=O)(=O)Nc2nccc(C)n2)cc1)C1=CCOC1=O (stereo not given in full)
Completion: 4.98 µM

Prompt: Fill in the blank: the reported GI50 of Cn1ccnc1C(=O)/C=C/c1ccc(CC(=O)Nc2ccccc2)cc1 is ____.
Completion: 4.42 µM

Prompt: What does the record list as GI50 for CO/N=C(\C)c1ccc(Nc2cc(-c3ccccc3)nc3c(O)cccc23)cc1 ?
Completion: 22.1 µM
